# Tested on: Klebsiella pneumoniae
# measurement description: Antimicrobial activity against Klebsiella pneumoniae assessed as growth inhibition after 24 hr by broth dilution method
# Assay type: functional
Give MIC for every item shown.
Numbers only, in µg/mL.

The following compounds have reported results that may help.
>  <compound>
O=C1NC(=O)C(=Cc2cn(-c3ccccc3)nc2-c2cc3ccccc3oc2=O)C(=O)N1

>  <MIC, µg/mL>
150

$$$$
>  <compound>
O=C1NC(=O)C(=Cc2cn(-c3ccccc3)nc2-c2cc3cc(Cl)ccc3oc2=O)C(=O)N1

>  <MIC, µg/mL>
150

$$$$
>  <compound>
O=C1NC(=S)NC(=O)C1=Cc1cn(-c2ccccc2)nc1-c1cc2cc(Br)ccc2oc1=O

>  <MIC, µg/mL>
150

$$$$
>  <compound>
O=C(O)c1cn(C2CC2)c2cc(N3CCNCC3)c(F)cc2c1=O [CIPROFLOXACIN]

>  <MIC, µg/mL>
25

$$$$
>  <compound>
O=C1NC(=S)NC(=O)C1=Cc1cn(-c2ccccc2)nc1-c1cc2cc(Br)c(Br)cc2oc1=O

>  <MIC, µg/mL>
150

$$$$

Provide MIC values for the following items, in order.
1. O=C1NC(=O)C(=Cc2cn(-c3ccccc3)nc2-c2cc3cc(Br)c(Br)cc3oc2=O)C(=O)N1
2. O=C1NC(=S)NC(=O)C1=Cc1cn(-c2ccccc2)nc1-c1cc2cc(Cl)c(Cl)cc2oc1=O
3. O=C1NC(=S)NC(=O)C1=Cc1cn(-c2ccccc2)nc1-c1cc2cc3ccccc3cc2oc1=O

Output line:
[300, 150, 150]

Okay, here is my list. What is MIC for each of these?
1. O=C1NC(=S)NC(=O)C1=Cc1cn(-c2ccccc2)nc1-c1cc2cc(Cl)ccc2oc1=O
2. O=C1NC(=O)C(=Cc2cn(-c3ccccc3)nc2-c2cc3cc(Br)ccc3oc2=O)C(=O)N1
3. O=C1NC(=S)NC(=O)C1=Cc1cn(-c2ccccc2)nc1-c1cc2ccccc2oc1=O
4. O=C1NC(=O)C(=Cc2cn(-c3ccccc3)nc2-c2cc3cc4ccccc4cc3oc2=O)C(=O)N1
5. O=C1NC(=O)C(=Cc2cn(-c3ccccc3)nc2-c2cc3cc(Cl)c(Cl)cc3oc2=O)C(=O)N1

Output line:
150
150
150
300
150

Recorded values, source ChEMBL document CHEMBL3046002.
